The reported numbers originate from PubChem BioAssay (NCI).

# System: SK-MEL-2 melanoma
# Run Description: NCI tumour cell line growth inhibition, 48 h
So I've got a bunch of compounds here, and I need their TGI values.
Answer with a number only, understood to be in µM.

-- ask Checklist item: TGI tested on SK-MEL-2 melanoma, entry CC(=O)Oc1c(-c2ccccc2)sc2ccccc12 , value?
-- reply 31.4

-- ask Checklist item: TGI tested on SK-MEL-2 melanoma, entry C[C@]12CC[C@H]3[C@@H](CC=C4C[C@@H](N5CCCC5)CC[C@@]43C)[C@@H]1C/C(=C\c1cccc(OCCN3CCOCC3)c1)[C@@H]2O , value?
-- reply 31.8

-- ask Checklist item: TGI tested on SK-MEL-2 melanoma, entry COc1cc(/C=C/C(=O)/C=C/c2ccc(-n3ccnc3C)cc2)ccc1O , value?
-- reply 84.2

====

# System: SNB-19 CNS
# Run Description: NCI tumour cell line growth inhibition, 48 h
Endpoint: TGI

-- ask What value of TGI has been reported for the following compound? CC1CC[P+](c2ccccc2)(c2ccccc2)c2c1ccc1ccccc21 (stereo unspecified)
-- reply 97.4 µM

-- ask What value of TGI has been reported for the following compound? O=C(CCCN1CCC(O)(c2ccc(Cl)cc2)CC1)c1ccc(F)cc1
-- reply > 100 µM

-- ask What value of TGI has been reported for the following compound? NC(=O)c1ccccc1[N+](=O)[O-]
-- reply > 100 µM

-- ask What value of TGI has been reported for the following compound? COc1ccc2c(c1)c(-c1nc(-c3c[nH]c4ccncc34)cs1)cn2C
-- reply 3.36 µM

-- ask What value of TGI has been reported for the following compound? Nc1ccc(C2=CC(c3ccc(Cl)cc3)N3C=CSC3=N2)cc1 (stereo unspecified)
-- reply 29 µM

-- ask What value of TGI has been reported for the following compound? OC(COC(c1ccccc1)(c1ccccc1)c1ccccc1)C(O)CC1SCCS1 (stereo unspecified)
-- reply 54.9 µM

-- ask What value of TGI has been reported for the following compound? O=S(=O)(NNc1ccccc1)c1ccccc1
-- reply > 100 µM

-- ask What value of TGI has been reported for the following compound? C=C(C)COC1CCCCO1 (stereo unspecified)
-- reply > 100 µM

-- ask What value of TGI has been reported for the following compound? C[C@]12CC[C@H]3[C@@H](CC=C4C[C@@H](N5CCCC5)CC[C@@]43C)[C@@H]1C/C(=C\c1cccc(OCCN3CCOCC3)c1)[C@@H]2O
-- reply > 100 µM

-- ask What value of TGI has been reported for the following compound? O=C(/C=C\c1ccc([N+](=O)[O-])cc1)c1ccccc(=O)c1O
-- reply 16.8 µM

-- ask What value of TGI has been reported for the following compound? CN(C)c1ccc(/C=C(\NC(=O)c2ccccc2)C2=NC(CCC(=O)O)C(=O)O2)cc1 (stereo unspecified)
-- reply > 50 µM

-- ask What value of TGI has been reported for the following compound? COc1ncc(Nc2ncc([C@@H](C)N3CCN(S(C)(=O)=O)CC3)cc2-c2nc(C)nc(N)n2)cc1F
-- reply > 66.8 µM

-- ask What value of TGI has been reported for the following compound? NNC(=S)NCCNC(=S)NN
-- reply > 100 µM

-- ask What value of TGI has been reported for the following compound? Cc1cc(=O)n2nc(CCl)sc2n1
-- reply 39 µM

-- ask What value of TGI has been reported for the following compound? O=C(O)[C@H](NS(=O)(=O)c1ccc(F)cc1)c1ccccc1
-- reply > 100 µM

-- ask What value of TGI has been reported for the following compound? CC(=O)[O-].Cn1ccnc1CNCc1nccn1C.[Cu+2].[O-][Cl+3]([O-])([O-])[O-]
-- reply > 100 µM

-- ask What value of TGI has been reported for the following compound? CC1(C)CCC(C)(C)C1C(=O)NC(O)C(=O)O (stereo unspecified)
-- reply > 100 µM

-- ask What value of TGI has been reported for the following compound? NCCCC[C@@H]1NC(=O)[C@H](CC(=O)O)NC(=O)CNC(=O)[C@H](CCCN=C(N)N)NC(=O)[C@@H](N)CSSC[C@@H](C(=O)O)NC(=O)[C@H](CC(=O)O)NC(=O)[C@@H]2CCCN2C(=O)CNC1=O
-- reply > 100 µM

-- ask What value of TGI has been reported for the following compound? CNC(=O)c1c(NC(=O)c2ccc(C(C)(C)C)cc2)sc2c1CCC(=O)C2
-- reply 1.39 µM

-- ask What value of TGI has been reported for the following compound? COc1ccc2c(c1)[nH]c(=O)c1c3cccc(F)c3cn21
-- reply > 69.6 µM

-- ask What value of TGI has been reported for the following compound? CC1=C(/C=C/C(C)=C/C2CC(N(C)C)=CC(=O)O2)C(C)(C)CCC1 (stereo unspecified)
-- reply 28.6 µM

====

# Tested on: SF-268 CNS
# Run Description: NCI tumour cell line growth inhibition, 48 h
So I've got a bunch of compounds here, and I need their GI50 values.

-- ask What value of GI50 has been reported for the following compound? CCC(C)[C@H](NC(=O)Nc1cc(C(F)(F)F)cc(C(F)(F)F)c1)C(=O)N[C@@H](Cc1cn(C)cn1)C(=O)OC (stereo not given in full)
-- reply 0.61 µM

-- ask What value of GI50 has been reported for the following compound? CCC(C)Nc1ccc(N)cc1 (stereo not given)
-- reply 5.61 µM

-- ask What value of GI50 has been reported for the following compound? C[CH2][Ge]([CH2]C)([CH2]C)[O]C(=O)C(OC(C)=O)c1ccccc1 (stereo not given)
-- reply > 100 µM

-- ask What value of GI50 has been reported for the following compound? O=C(Nc1ccccc1)Nc1ccc2cc3ccc(NC(=O)Nc4ccccc4)cc3nc2c1
-- reply 1.68 µM

-- ask What value of GI50 has been reported for the following compound? COc1ccc(CN2c3ccccc3Sc3ccccc32)c(C(F)(F)F)c1
-- reply 10.9 µM

====

# Tested on: DU-145 prostate
# Run Description: NCI tumour cell line growth inhibition, 48 h; in the data active = GI50 below about 0.43 µM; inactive = the rest
Return exactly one item of active, inactive

-- ask Kindly provide the recorded test outcome for the following compound: CCC(C)[C@H](NC(=O)Nc1cc(C(F)(F)F)cc(C(F)(F)F)c1)C(=O)N[C@@H](Cc1cn(C)cn1)C(=O)OC (some centres not stated)
-- reply inactive

-- ask Kindly provide the recorded test outcome for the following compound: Cn1cc(-c2ccc3cc(-c4ccc(CC(=O)Nc5cc(C(C)(C)C)on5)cc4)cnc3c2)cn1
-- reply inactive

-- ask Kindly provide the recorded test outcome for the following compound: CCOC(=O)c1cc2c(cc1Cl)SC(=Nc1ccccc1)N(S(=O)(=O)c1ccc(Cl)cc1)S2(=O)=O
-- reply inactive

-- ask Kindly provide the recorded test outcome for the following compound: COC12C=C/C(=C(/C(=O)OCc3ccccn3)C(=O)CCCCCCCCC3(OC)C=C/C(=C(/C(=O)OCc4ccccn4)C(=O)CCCCCCCC1)O3)O2
-- reply inactive

-- ask Kindly provide the recorded test outcome for the following compound: CC1=C2[C@@H](CC1)[C@]1(C)O[C@@](C(C)C)(C[C@H]1OC(=O)CO)[C@H]2OC(=O)C1CC1c1ccccc1 (some centres not stated)
-- reply inactive

-- ask Kindly provide the recorded test outcome for the following compound: CC1(C)CNc2cc(NC(=O)c3cccnc3NCc3ccncc3)ccc21
-- reply inactive

-- ask Kindly provide the recorded test outcome for the following compound: CC(N)(Cc1c[nH]c2cccc(F)c12)C(=O)O (configuration not stated)
-- reply inactive

-- ask Kindly provide the recorded test outcome for the following compound: CC1C(C)N(C(=O)CCl)c2ccccc2N1C(=O)CCl (configuration not stated)
-- reply inactive

-- ask Kindly provide the recorded test outcome for the following compound: O=C1CC(c2cccc(F)c2)Nc2cc3c(cc21)OCO3 (configuration not stated)
-- reply active

-- ask Kindly provide the recorded test outcome for the following compound: CC1=C(c2ccccc2)C(O)(c2ccccc2)C(C)C1=O (configuration not stated)
-- reply inactive

-- ask Kindly provide the recorded test outcome for the following compound: C[C@]12CC[C@H]3[C@@H](CC=C4C[C@@H](N5CCCC5)CC[C@@]43C)[C@@H]1C/C(=C\c1cccc(OCCN3CCOCC3)c1)[C@@H]2O
-- reply inactive

-- ask Kindly provide the recorded test outcome for the following compound: CCOCCCn1c2c(c3c(O)cccc31)C(=O)c1ccccc1-2
-- reply inactive

====

# Tested on: 786-0 renal
# Run Description: NCI tumour cell line growth inhibition, 48 h
Endpoint: TGI (µM)
Answer with a number only, understood to be in µM.

-- ask What value of TGI has been reported for the following compound? COc1ccc(-c2nc(-c3ccc(C)cc3)cn3ccnc23)cc1
-- reply 45.6

-- ask What value of TGI has been reported for the following compound? Nc1ccc(C2=CC(c3ccc(Cl)cc3)N3C=CSC3=N2)cc1 (stereo not given)
-- reply 25.7

-- ask What value of TGI has been reported for the following compound? COC(=O)[C@H](Cc1cnc[nH]1)NC(=O)[C@@H](NC(=O)Nc1cc(C(F)(F)F)cc(C(F)(F)F)c1)C(C)C
-- reply 38.6
